The reported numbers originate from the nanobody polyreactivity screen of Harvey et al. (2022).

# experiment.summary: yeast display, Sf9 membrane polyspecificity reagent, FACS + sequencing; frameworks hold sequencing errors
readout.kind: polyreactivity (PSR sort gate)

QVQLVESVGGFVQAGGSLRLSCAASGRIFGTYAMGWYRQAPGKERELVAAITRGGTTYYADSVKRRFTISRDNAKNTVYLQMNSLKPEDTAVYDCATGPAIRYDYWGQGTQVTVSS ... low polyreactivity
QVQLVESGGGLVQAGGSLRLSCAASGSIFVYNAMGWYRQAPGKERELVAAITWSGGNTYYADSVKGRFTISRDNAKNTVYLEMNSLKPEDTAVSYCPAEFWQQGGWWEYDYWGQGTQVTVSS ... low polyreactivity

====

# experiment.summary: yeast display, Sf9 membrane polyspecificity reagent, FACS + sequencing; frameworks hold sequencing errors
readout.kind: polyreactivity (PSR sort gate)

QVQLVESGGGLVQAGGSLRLSCAASGLIFRKNAMGWDRQAPGKERELVAAMSYNGASTYYADSVKGRFTISRDNAKNTVYLQMNSLKPEDTAVYYCAAYAGYSDQARYYYWGQGTQVTVSS ... high polyreactivity
QVQLVESGGGLVQAGGSLRLSCAASGSIFDPYAMGWYRQAPGKERELVAAISWSDSSTYYADSVKGRFTISRDNEKNTVYLQMNSLKPEDTAVYYSAAPSRYRYYWGNYWGQGTQVTVSS ... high polyreactivity

====

# experiment.summary: yeast display, Sf9 membrane polyspecificity reagent, FACS + sequencing; frameworks hold sequencing errors
readout.kind: polyreactivity (PSR sort gate)

Recorded results for 5 sequences are shown here.
QVQLVESGGCLVQEGGSLRLSCPASGSIFDDYAMGWYRQAPGKERELVAAISDSCGSTYYADSVKGRFTISRDNAKNTVYLQMNSLNQEDTAVYYCNADRDDDYDYWGEGTQVTVSS ... low polyreactivity
QVHLVESGGGLVQAGGSLRLSCAASGFIFWENGMGWYRQAPGKERELVAAISSGGGRTYYADSVKGLFTISRDNAKNTVYLQMNSLKPEDTAFYYCNRARYYREFDYWGQGTQVTVSS ... high polyreactivity
QVQLVESGGGLVQAGGRLRLSCAASGRIFPKNTMGWNRPAPGKERELVAAINWNGGRTYYADSVKGRYTISRDNAKTTVYLQMNSLKPEDTAVYYCAKDGYWVFDYWGQGTQVTVSS ... low polyreactivity
QVQLVESGGGLVQAGGSLRLSCAASGFIFAYNAMGWYRQAPGKERELVASIRTRAGSTYYADSVKGRFTISRDNAKNTDYLQMNSLKPADTAVYYSAARPFPRRYDYWGQGTQVTVSS ... low polyreactivity
QVQLVESAGGLVQAGGSLRLSCAASGYIFWENAMGWYRQAPGKERELVAAITVSGGGTYYADSVKGRFTISRDNAKNTVYLQMNSLKPEDTAVYYCAADEDNPWLWFYYWGHGTQVTVSS ... low polyreactivity

Note down polyreactivity (PSR sort gate) recorded for QVQLVESGGGLVQAGGSLRLSCAASGGIFDSYALGWYRQAPGKERELVADITSGGSTNYADSVKGRFTISRDNAKNTVYLQMNSLKPEDTAVYYCARTVYGARSYDYWGQGTQVTVSS
low polyreactivity

Look up polyreactivity (PSR sort gate) of QVQLVESGGGLVQAGGSLRLSCAASGRIFFKNAMGWYRQAPGKERELVAAITWSGGRTYYADSVKGRFTISRDNAKNTVYLQMNSLKPEDTAVYYCNALAPSPYDWGQGTQVTVSS and report it.
high polyreactivity

Respond only with polyreactivity (PSR sort gate) recorded for HVQQQESGGGLVQAGGSLRLSCAASGYISVVIGMCWYRQSPGKERELVASIAYGAITYYTDRVKGRFTISRDYAKNTEYLQMNSLKAEDTAVYYCAADQPPLAYHWYWGQGTQATVSS
high polyreactivity

Report polyreactivity (PSR sort gate), nothing else, for this sequence: QDQLVESGGGLVQAGGSLRLSCAASGITFVYYAMGWYRQAPGKERELVAAITGSGDSTYYADSVKGRFTISRDNAKNTVYLQMNSLKPEDTAVYYCAAEAWWYGGFGYWGQGTQVTVSS
high polyreactivity

Tell us which polyreactivity (PSR sort gate) value is on record for QVQLVESGGGLVQAGGSIRLSCAASGLIFRYYTMGWYRQAPGKERELVATITKSGSSTYYADSVKGRFTISRDNAKNTVYLQMNSLKPEDTAVYYCAARVTRRYDYWGQGTQLTVSS
high polyreactivity

For the sequence QVQLVESGGGLVQAGGSLRISCAASGRTFDPYAMGWYRQAPGKERELVAAITSGGSTYYADTVKGRFTISRDNAKNTVYLQMNSLTPEDTAVYYCAKPYYRLEDYWGQGTQVTVSS , report polyreactivity (PSR sort gate).
low polyreactivity
